assayedTarget: T1, FGFR2b on SNU-16 and MFM-223 cells (human, UniProt P21802 22-821)
T1 chain: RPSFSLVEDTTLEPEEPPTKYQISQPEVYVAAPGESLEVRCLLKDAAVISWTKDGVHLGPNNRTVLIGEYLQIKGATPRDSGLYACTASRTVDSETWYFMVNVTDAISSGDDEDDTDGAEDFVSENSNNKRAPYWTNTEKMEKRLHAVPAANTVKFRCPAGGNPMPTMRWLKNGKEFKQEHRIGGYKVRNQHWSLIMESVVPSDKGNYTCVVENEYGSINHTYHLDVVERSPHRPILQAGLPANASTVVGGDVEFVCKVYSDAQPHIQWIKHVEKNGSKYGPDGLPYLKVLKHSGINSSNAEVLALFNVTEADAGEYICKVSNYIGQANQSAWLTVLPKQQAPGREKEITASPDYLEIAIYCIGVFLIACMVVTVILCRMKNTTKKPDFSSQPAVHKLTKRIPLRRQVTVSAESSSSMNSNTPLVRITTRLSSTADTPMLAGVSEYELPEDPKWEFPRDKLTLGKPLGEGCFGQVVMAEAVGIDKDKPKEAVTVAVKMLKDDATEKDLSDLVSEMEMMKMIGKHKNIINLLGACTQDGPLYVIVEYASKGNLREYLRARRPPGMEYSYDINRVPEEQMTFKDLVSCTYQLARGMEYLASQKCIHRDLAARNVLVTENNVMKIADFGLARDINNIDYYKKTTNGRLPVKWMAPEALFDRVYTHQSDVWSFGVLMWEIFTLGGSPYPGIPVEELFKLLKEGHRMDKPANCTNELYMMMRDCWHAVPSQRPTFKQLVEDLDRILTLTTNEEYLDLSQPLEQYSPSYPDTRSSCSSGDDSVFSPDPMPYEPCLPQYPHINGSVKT
assay: cell-based or functional assay
endpointLabel: IC50 (M), CellTiter-Glo cytotoxicity, SNU-16 cells, 6 days

binder | numericReadout
mAb1-tubulysin 1ALP (antibody, human IgG4 S228P, kappa, V domains shown, deglycosylated; Q295 carries azido-PEG3-amine clicked to Tubulysin 1A-LP; DAR 2.1 per antibody, also called Anti FGFR2 mAb1-PEG3-N3-Tubulysin 1A-LP) VH: QVQLVESGGGVVQPGRSLRLSCAASGFTFSSYGMHWVRQAPGKGLEWVAVIWYDGSNKYYADSVKGRFTISRDNSKNTLYLQMNSLRAEDTAVYYCAREESSASGVDYWGQGTLVTVSS VL: EIVLTQSPGTLSLSPGERATLSCRASQSVSTRYLAWYQQKRGQAPRLLIYGASSRATGIPDRFSGSGSGTDFTLTISRLEPEDFAVYYCQEYGSSSITFGQGTRLEIKR | 4.34e-11
mAb2-maytansinoid 1ALP (antibody, V domains shown, maytansinoid 1ALP (mc-VC-PAB-NMe-C3-May) linker-payload conjugated; residues not stated in Example 5; DAR 1.9 per antibody, it is written on the heavy chain only for want of a better place; also called FGFR2 maytansinoid ADC) VH: QVQLVESGGGVVQPGKSLRLSCAASGFTFSNYGMHWVRQTPVKGLEWVTLIWYDGSNKYYTDSVKGRFTISRDNSKNTLYLQMNSLRSEDTAVYYCAREGNWNYGHAFDIWGQGTMVTVSS VL: DIQMTQSPSTLSASVGDRVTITCRASQNIGNWLAWYQQKPGKAPNLLIYKASTLESGVPSRFSGSGSGTEFTLTISSLQPDDFATYNCQQYNSYSPTFGQGTKLEIKR | 2.06e-10
mAb2-tubulysin 1ALP (antibody, V domains shown, deglycosylated; Q295 carries azido-PEG3-amine clicked to Tubulysin 1A-LP; DAR 2.1 per antibody, also called Anti FGFR2 mAb2-PEG3-N3-Tubulysin 1A-LP) VH: QVQLVESGGGVVQPGKSLRLSCAASGFTFSNYGMHWVRQTPVKGLEWVTLIWYDGSNKYYTDSVKGRFTISRDNSKNTLYLQMNSLRSEDTAVYYCAREGNWNYGHAFDIWGQGTMVTVSS VL: DIQMTQSPSTLSASVGDRVTITCRASQNIGNWLAWYQQKPGKAPNLLIYKASTLESGVPSRFSGSGSGTEFTLTISSLQPDDFATYNCQQYNSYSPTFGQGTKLEIKR | 3.7e-11
mAb1-maytansinoid 1ALP (antibody, V domains shown, maytansinoid 1ALP (mc-VC-PAB-NMe-C3-May) linker-payload conjugated; residues not stated in Example 5; DAR 2.5 per antibody, it is written on the heavy chain only for want of a better place) VH: QVQLVESGGGVVQPGRSLRLSCAASGFTFSSYGMHWVRQAPGKGLEWVAVIWYDGSNKYYADSVKGRFTISRDNSKNTLYLQMNSLRAEDTAVYYCAREESSASGVDYWGQGTLVTVSS VL: EIVLTQSPGTLSLSPGERATLSCRASQSVSTRYLAWYQQKRGQAPRLLIYGASSRATGIPDRFSGSGSGTDFTLTISRLEPEDFAVYYCQEYGSSSITFGQGTRLEIKR | 2.68e-10

All values here come from patent US20220162323A1.
